target: human NK1 receptor (Homo sapiens, UniProt P25103); construct: expressed in transfected cells; host or cells: CHO cells infected with Semliki virus expression system; membrane suspension; assay: NK1 receptor binding assay, displacement of [3H]substance P; conditions: [3H]substance P (0.6 nM) displacement; CHO cells infected with the human NK1 receptor (Semliki virus expression system); 60 min at room temperature; read-out: affinity to the NK-1 receptor, given as pKi (converted)
Sequence (P25103 whole entry): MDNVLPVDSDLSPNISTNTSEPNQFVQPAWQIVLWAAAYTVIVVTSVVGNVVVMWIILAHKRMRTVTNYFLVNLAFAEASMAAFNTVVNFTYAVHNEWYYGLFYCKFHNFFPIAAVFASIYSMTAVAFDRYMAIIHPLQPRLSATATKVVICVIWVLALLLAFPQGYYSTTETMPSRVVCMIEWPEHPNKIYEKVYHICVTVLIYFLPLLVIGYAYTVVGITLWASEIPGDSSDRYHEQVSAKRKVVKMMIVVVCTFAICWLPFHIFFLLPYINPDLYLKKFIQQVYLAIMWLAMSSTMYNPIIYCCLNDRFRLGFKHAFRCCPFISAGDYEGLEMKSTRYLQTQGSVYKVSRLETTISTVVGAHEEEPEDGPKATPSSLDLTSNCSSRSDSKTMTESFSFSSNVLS
// NB: equality with 2 nM counts as Not fulfilled; only Ki strictly below is Fulfilled

Example entries and their recorded answers appear below.
> print(dat)
                            compound.string                             target.entity  assigned.class
1  Cc1ccccc1-c1cnc(OCCN(C)C)nc1N(C)C(=O)C(C)(C)c1cc(C(F)(F)F)cc(C(F)(F)F)c1  human NK1 receptor (Homo sapiens, UniProt P25103)       Fulfilled
2  CN1CCN(c2ncc(-c3ccccc3Cl)c(C(=O)N(C)Cc3cc(C(F)(F)F)cc(C(F)(F)F)c3)n2)CC1  human NK1 receptor (Homo sapiens, UniProt P25103)   Not fulfilled

Does this compound meet the criterion Ki < 2 nM? `Cc1ccccc1-c1cnc(OCCN(C)C)nc1C(=O)N(C)Cc1cc(C(F)(F)F)cc(C(F)(F)F)c1`
Not fulfilled

Does this compound meet the criterion Ki < 2 nM? `Cc1cc(F)ccc1-c1cnc(NCCN(C)C)nc1C(=O)N(C)Cc1cc(C(F)(F)F)cc(C(F)(F)F)c1`
Fulfilled

Does this compound meet the criterion Ki < 2 nM? `CN1CCN(c2ncc(-c3cccc4ccccc34)c(C(=O)N(C)Cc3cc(C(F)(F)F)cc(C(F)(F)F)c3)n2)CC1`
Not fulfilled
